target-system: Nuclear factor erythroid 2-related factor 2 (Homo sapiens)
Sequence (whole entry): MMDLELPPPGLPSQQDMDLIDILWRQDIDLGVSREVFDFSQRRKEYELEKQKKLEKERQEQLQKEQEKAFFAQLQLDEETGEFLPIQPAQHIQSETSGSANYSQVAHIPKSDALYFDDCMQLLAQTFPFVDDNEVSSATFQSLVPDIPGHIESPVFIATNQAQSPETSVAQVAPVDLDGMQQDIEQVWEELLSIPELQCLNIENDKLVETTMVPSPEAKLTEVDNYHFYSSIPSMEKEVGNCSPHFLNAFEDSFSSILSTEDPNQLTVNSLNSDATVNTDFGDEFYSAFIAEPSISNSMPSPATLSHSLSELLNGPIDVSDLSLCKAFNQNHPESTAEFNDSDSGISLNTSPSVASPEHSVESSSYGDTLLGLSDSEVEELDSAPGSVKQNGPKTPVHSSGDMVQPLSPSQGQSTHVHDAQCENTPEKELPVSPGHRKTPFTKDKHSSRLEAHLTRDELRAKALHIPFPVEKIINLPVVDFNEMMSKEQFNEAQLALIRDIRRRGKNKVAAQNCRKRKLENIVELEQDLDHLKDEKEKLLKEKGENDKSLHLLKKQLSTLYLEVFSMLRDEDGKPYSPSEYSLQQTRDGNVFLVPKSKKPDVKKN
method-summary: Induction of Nrf2/ARE activation in human Hela cells at 10 uM measured after 12 to 24 hrs by luciferase reporter gene assay relative to control
Type: cell-based
settings: filed as activator, time 12-24 hrs
observation-type: fold change (FC)
Answer with the value's number alone.

Illustrative cases are given below, each with its answer.
compound-smiles: COc1ccccc1/C=C/C(=O)N1CCN(Cc2noc(Cc3c[nH]c4ccccc34)n2)CC1
numeric-readout: 3.12

compound-smiles: COc1cc(/C=C/C(=O)N2CCN(Cc3noc(Cc4c[nH]c5ccccc45)n3)CC2)ccc1O
numeric-readout: 3.12

compound-smiles: O=C(c1ccc(Br)cc1)N1CCN(Cc2noc(Cc3c[nH]c4ccccc34)n2)CC1
numeric-readout: 1.28

compound-smiles: Cc1ccc(C(=O)N2CCN(Cc3noc(Cc4c[nH]c5ccccc45)n3)CC2)cc1
numeric-readout: 1.23

Q) Suppose we examine the compound Fc1cccc(CN2CCN(Cc3noc(Cc4c[nH]c5ccccc45)n3)CC2)c1 ; what fold change (FC) value has been reported?
A) 1.54

Q) Now consider COc1ccc(/C=C/C(=O)N2CCN(Cc3noc(Cc4c[nH]c5ccccc45)n3)CC2)cc1O and answer again.
A) 7.78

Q) // repeat for O=C(/C=C/c1ccccc1)N1CCN(Cc2noc(Cc3c[nH]c4ccccc34)n2)CC1 and report
A) 2.57

Q) Same thing, different compound: CS(=O)(=O)c1ccc(CN2CCN(Cc3noc(Cc4c[nH]c5ccccc45)n3)CC2)cc1
A) 3.15

Q) Param item: COc1ccc(/C=C/C(=O)N2CCN(Cc3noc(Cc4c[nH]c5ccccc45)n3)CC2)cc1OC
A) 5.79
